Value source: patent US12297197B2

Counter-ions that a name gives are not always drawn.
RET kinase (Homo sapiens): reported pIC50 for various molecules.
Sequence (P07949 29-1114): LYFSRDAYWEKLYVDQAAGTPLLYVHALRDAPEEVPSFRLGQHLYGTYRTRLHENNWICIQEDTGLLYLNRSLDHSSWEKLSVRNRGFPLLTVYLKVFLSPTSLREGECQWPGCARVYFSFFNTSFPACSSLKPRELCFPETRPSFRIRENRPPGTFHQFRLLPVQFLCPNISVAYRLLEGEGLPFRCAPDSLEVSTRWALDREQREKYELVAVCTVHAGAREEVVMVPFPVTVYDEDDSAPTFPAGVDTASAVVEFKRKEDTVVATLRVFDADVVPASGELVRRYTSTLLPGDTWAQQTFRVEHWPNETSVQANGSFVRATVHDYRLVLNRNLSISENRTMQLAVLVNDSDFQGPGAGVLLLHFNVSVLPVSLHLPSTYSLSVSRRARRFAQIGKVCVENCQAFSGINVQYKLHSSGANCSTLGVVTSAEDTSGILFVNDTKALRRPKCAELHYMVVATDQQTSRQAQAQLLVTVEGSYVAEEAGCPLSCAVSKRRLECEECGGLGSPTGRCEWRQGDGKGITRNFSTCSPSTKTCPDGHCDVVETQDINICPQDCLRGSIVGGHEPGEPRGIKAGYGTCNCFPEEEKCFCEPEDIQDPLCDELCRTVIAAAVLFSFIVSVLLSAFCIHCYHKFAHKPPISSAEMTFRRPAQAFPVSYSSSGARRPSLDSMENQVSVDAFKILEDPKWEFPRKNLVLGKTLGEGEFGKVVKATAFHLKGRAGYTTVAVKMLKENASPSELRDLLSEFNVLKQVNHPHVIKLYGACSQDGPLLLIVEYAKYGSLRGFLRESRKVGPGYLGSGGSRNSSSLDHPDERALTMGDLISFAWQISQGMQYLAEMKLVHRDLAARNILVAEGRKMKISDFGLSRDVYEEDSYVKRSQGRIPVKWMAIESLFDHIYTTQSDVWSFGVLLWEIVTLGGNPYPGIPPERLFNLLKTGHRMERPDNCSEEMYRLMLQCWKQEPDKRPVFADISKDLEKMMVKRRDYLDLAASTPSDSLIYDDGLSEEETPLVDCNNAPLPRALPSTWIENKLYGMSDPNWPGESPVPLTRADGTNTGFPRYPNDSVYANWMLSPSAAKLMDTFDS
To interpret pIC50, take it as minus log10 of a concentration measured in moles per litre.

Record summary for N#Cc1cnn2cc(N3CCCC3)cc(-c3ccc(N4CCC(C(=O)NC5CC(F)(F)C5)CC4)nc3)c12 [Trifluoroacetate of compound 58] : reported pIC50 = 8.74

Record summary for N#Cc1cnn2cc(C3=CCOCC3)cc(-c3ccc(N4CC5CC(C4)N5Cc4ccc5[nH]cnc5c4)nc3)c12 [Compound 37] : reported pIC50 = 8.64

Record summary for COc1ccc(CN2CCN(c3ccc(-c4cc(N5CCCC5)cn5ncc(C#N)c45)cn3)CC2)cn1 [Trifluoroacetate of compound 63] : reported pIC50 = 8.80

Record summary for CCN1CCC(c2cc(-c3ccc(N4CCN(Cc5c(F)cccc5F)CC4)nc3)c3c(C#N)cnn3c2)C1 (centres unmarked) [Trifluoroacetate of compound 7] : reported pIC50 = 6.62

Record summary for COc1ccc(CN2C3CC2CN(c2ccc(-c4cc(N5CCC(F)(F)C5)cn5ncc(C#N)c45)cn2)C3)cn1 [Trifluoroacetate of compound 69] : reported pIC50 = 8.84

Record summary for N#Cc1cnn2cc(N3CCOCC3)cc(-c3ccc(N4CC5CC(C4)N5Cc4cnc5[nH]ccc5c4Cl)nc3)c12 [Compound 16] : reported pIC50 = 8.22

Record summary for COc1ccc(CN2C3CC2CN(c2ccc(-c4cc(N5CCN(C)C(=O)C5)cn5ncc(C#N)c45)cn2)C3)cn1 [Trifluoroacetate of compound 19] : reported pIC50 = 8.63

Record summary for COc1ccc(CN2C3CC2CN(c2ccc(-c4cc(N5CCC(C)(O)C5)cn5ncc(C#N)c45)cn2)C3)cn1 (centres unmarked) [Trifluoroacetate of compound 82] : reported pIC50 = 8.63

Record summary for CN1CC=C(c2cc(-c3ccc(N4CCN(Cc5c(F)cccc5F)CC4)nc3)c3c(C#N)cnn3c2)CC1 [Trifluoroacetate of compound 26] : reported pIC50 = 8.42

Record summary for COc1c(F)cc(CN2C3CC2CN(c2ccc(-c4cc(N5CCOCC5)cn5ncc(C#N)c45)cn2)C3)cc1F [Trifluoroacetate of compound 11] : reported pIC50 = 8.89

Record summary for COc1ccc(CN2C3CC2CN(c2ccc(-c4cc(N5CCN(C)CC5)cn5ncc(C#N)c45)cn2)C3)cn1 [Trifluoroacetate of compound 18] : reported pIC50 = 9.34

Record summary for CC(C)(O)CNC(=O)C1CCN(c2ccc(-c3cc(N4CCCC4)cn4ncc(C#N)c34)cn2)CC1 [Trifluoroacetate of compound 60] : reported pIC50 = 8.41

Record summary for CC(C)Oc1ccc(CN2C3CC2CN(c2ccc(-c4cc(N5CCOCC5)cn5ncc(C#N)c45)cn2)C3)cn1 [Trifluoroacetate of compound 12] : reported pIC50 = 9.21

Record summary for COc1ccc(CN2CCN(c3ccc(-c4cc(C5=CCOCC5)cn5ncc(C#N)c45)cn3)CC2)cn1 [Hydrochloride of compound 29] : reported pIC50 = 8.98
